protocolDescription: Pharmacokinetics of oral administration in Balb/C mice
Type: in vivo
measurementContext: male, mouse, po, 30 mg/kg, P.O., plasma, read-out: Cmax
measureName: Cmax (ng/mL)
Report the value in ng/mL with no unit label.

// below: answered compounds
O=C(Nc1cc(Cl)n2ncc(Cl)c2c1)c1cnn(-c2ccc3c4c(cccc24)C(=O)N3)c1C(F)(F)F = 4380
O=C(Nc1cnc(-n2cccn2)c(C(F)(F)F)c1)c1cnn(-c2ccc3c4c(cccc24)C(=O)N3)c1C(F)(F)F = 25900
O=C(Nc1ccc(-n2nccn2)c(Cl)c1)c1cnn(-c2cnc3c4c(cccc24)C(=O)N3)c1C(F)(F)F = 1290
O=C(Nc1ccc(-n2nccn2)c(C(F)(F)F)c1)c1cnn(-c2ccc3c4c(cccc24)C(=O)N3)c1C(F)(F)F = 3020

# context switch: different compound, same Cmax
Which Cmax value belongs to `O=C(Nc1cnc(-n2nccn2)c(Cl)c1)c1cnn(-c2ccc3c4c(cccc24)C(=O)N3)c1C(F)(F)F` ?
7180

###

Listed here are compounds together with their documented Cmax.
protocolDescription: Pharmacokinetics of oral administration in Balb/C mice
Format: in vivo
measurementContext: male, mouse, po, 30 mg/kg, P.O., plasma, read-out: Cmax
Method: Balb/C mice were used as test animals to study the pharmacokinetic behavior of the compound in the plasma of mice after oral administration at a dose of 30 mg/kg. 3 Balb/C mice (3/example), male, from Shanghai Jiesijie Experimental Animal Co., Ltd., animal production license number (SCXK (Shanghai) 2013-0006 N0.311620400001794). […] The main pharmacokinetic parameters were calculated using WinNonlin 8.2.
Report the value in ng/mL with no unit label.

// below: answered compounds
O=C(Nc1ccc(-n2nccn2)c(Cl)c1)c1cnn(-c2ccc3c4c(cccc24)C(=O)N3)c1C(F)(F)F = 14100
O=C(Nc1ccnc(C(F)(F)F)c1)c1cnn(-c2ccc3c4c(cccc24)C(=O)N3)c1C1CC1 = 28300
O=C(Nc1cnc(-n2nccn2)c(C(F)F)c1)c1cnn(-c2ccc3c4c(cccc24)C(=O)N3)c1C(F)(F)F = 15300

Which Cmax value belongs to `O=C(Nc1cnc(-n2nccn2)c(C(F)(F)F)c1)c1cnn(-c2ccc3c4c(cccc24)C(=O)N3)c1C(F)(F)F` ?
22900

###

targetDesc: Recombinant human MALT1/MLT protein (Homo sapiens (Human), UniProt Q9UDY8)
Sequence (Q9UDY8 whole entry): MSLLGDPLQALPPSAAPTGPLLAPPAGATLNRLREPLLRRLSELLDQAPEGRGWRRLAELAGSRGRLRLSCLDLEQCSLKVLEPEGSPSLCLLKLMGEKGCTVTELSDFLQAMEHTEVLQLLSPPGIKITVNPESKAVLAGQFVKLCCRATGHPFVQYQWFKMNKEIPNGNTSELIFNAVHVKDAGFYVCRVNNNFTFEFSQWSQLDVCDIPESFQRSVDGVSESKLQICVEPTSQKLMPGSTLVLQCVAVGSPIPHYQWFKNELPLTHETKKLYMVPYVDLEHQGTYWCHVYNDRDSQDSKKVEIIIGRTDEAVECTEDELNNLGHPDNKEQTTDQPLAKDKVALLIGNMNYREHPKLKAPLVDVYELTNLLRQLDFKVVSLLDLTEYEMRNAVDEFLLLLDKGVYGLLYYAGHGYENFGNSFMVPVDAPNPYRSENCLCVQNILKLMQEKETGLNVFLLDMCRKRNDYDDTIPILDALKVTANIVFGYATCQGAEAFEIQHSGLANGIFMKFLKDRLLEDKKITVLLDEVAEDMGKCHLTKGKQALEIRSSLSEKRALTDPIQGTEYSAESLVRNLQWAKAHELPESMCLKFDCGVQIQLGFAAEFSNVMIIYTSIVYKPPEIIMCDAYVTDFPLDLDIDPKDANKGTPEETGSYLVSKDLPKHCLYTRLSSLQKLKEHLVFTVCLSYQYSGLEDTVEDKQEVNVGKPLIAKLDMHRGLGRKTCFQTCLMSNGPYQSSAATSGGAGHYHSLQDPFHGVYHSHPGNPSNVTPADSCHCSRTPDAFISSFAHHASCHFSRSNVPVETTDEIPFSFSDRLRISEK
protocolDescription: Inhibitory effect on MALT1 enzyme activity (Ac-LRSR-AMC substrate, fluorescence 460 nm)
measurementContext: 10 nM FL MALT1, Ac-LRSR-AMC substrate, 50 min pre-incubation, 4 h reaction
Listed here are compounds together with their documented IC50.
Report the value in nM with no unit label.

// below: answered compounds
O=C(Nc1ccnc(C(F)(F)F)c1)c1cnn(-c2ccc3c4c(cccc24)C(=O)N3)c1C(F)(F)F [Example 3] = 105
O=C(Nc1cnc(-n2nccn2)c(C(F)(F)F)c1)c1cnn(-c2ccc3c4c(cccc24)C(=O)N3)c1C(F)F = 193
Cn1cnc(-c2ncc(NC(=O)c3cnn(-c4ccc5c6c(cccc46)C(=O)N5)c3C(F)(F)F)cc2Cl)n1 = 123
O=C(Nc1cnc(-n2nccn2)c(Cl)c1)c1cnn(-c2ccc3c4c(cccc24)C(=O)N3)c1C(F)(F)F = 15
O=C(Nc1ccnc(C(F)(F)F)c1)c1cnn(-c2ccc3c4c(cccc24)OC3)c1C(F)(F)F = 169

Give Recombinant human MALT1/MLT protein (Homo sapiens (Human), UniProt Q9UDY8) IC50 for `O=C(Nc1cnc(-n2cccn2)c(Cl)c1)c1cnn(-c2ccc3c4c(cccc24)C(=O)N3)c1C(F)(F)F`
80

Give Recombinant human MALT1/MLT protein (Homo sapiens (Human), UniProt Q9UDY8) IC50 for `O=C(Nc1cnc(-n2nccn2)c(Cl)c1)c1cnn(-c2ccc3c4c(cccc24)C(=O)N3)c1C1CC1`
16

Give Recombinant human MALT1/MLT protein (Homo sapiens (Human), UniProt Q9UDY8) IC50 for `Cc1ncn(-c2ncc(NC(=O)c3cnn(-c4ccc5c6c(cccc46)C(=O)N5)c3C(F)(F)F)cc2Cl)n1`
93

Give Recombinant human MALT1/MLT protein (Homo sapiens (Human), UniProt Q9UDY8) IC50 for `O=C(Nc1ccc(-n2nccn2)c(C(F)(F)F)c1)c1cnn(-c2cnc3c4c(cccc24)C(=O)N3)c1C1CC1`
50

Give Recombinant human MALT1/MLT protein (Homo sapiens (Human), UniProt Q9UDY8) IC50 for `Cn1ccc(-c2ncc(NC(=O)c3cnn(-c4ccc5c6c(cccc46)C(=O)N5)c3C(F)(F)F)cc2C(F)(F)F)n1`
48

Give Recombinant human MALT1/MLT protein (Homo sapiens (Human), UniProt Q9UDY8) IC50 for `O=C(Nc1cc(Cl)n2ncc(Cl)c2c1)c1cnn(-c2ccc3c4c(cccc24)C(=O)N3)c1C(F)(F)F`
107

Give Recombinant human MALT1/MLT protein (Homo sapiens (Human), UniProt Q9UDY8) IC50 for `Cc1ncnn1-c1ncc(NC(=O)c2cnn(-c3ccc4c5c(cccc35)C(=O)N4)c2C(F)(F)F)cc1Cl`
123

Give Recombinant human MALT1/MLT protein (Homo sapiens (Human), UniProt Q9UDY8) IC50 for `O=C(Nc1ccc(-n2nccn2)c(Cl)c1)c1cnn(-c2ccc3c4c(cccc24)C(=O)N3)c1C1CC1`
28

Give Recombinant human MALT1/MLT protein (Homo sapiens (Human), UniProt Q9UDY8) IC50 for `O=C(Nc1cnc(-n2nccn2)c(C(F)(F)F)c1)c1cnn(-c2ccc3c4c(cccc24)C(=O)N3)c1C(F)(F)F`
24
